Test details: yeast display, Sf9 membrane polyspecificity reagent, FACS + sequencing; frameworks hold sequencing errors
Outcome measure: polyreactivity (PSR sort gate)

# Entry sequence, polyreactivity (PSR sort gate)
rows = [
    ("QVQLVESGGGLVQAGGSLRLSCAASGFTFVKNAMGWYRQAPGKERELVAAITGSAGRTYYADSVKGRFTISRANAKNTVYLQMNSLKPEDTAVYYCNVYYGYFRSRYGYWGQGTQVTVSS", "high polyreactivity"),
    ("QDLLVESGGGLVQAGGSLRLRCAASGITFAFYTMGWYRQAPGKPSELVTAISYSGGRTYNADSVKGRFTISRDNAKYTVYVQMLSLKPEDTAVYYCNTRYRGSYDYWGQGTQVTVSS", "high polyreactivity"),
    ("QVQLVESGGGLVQAGGSLRLSCAASGSTFGYYGMGWYRQAPGKERELVAAISTGGRTNYADSVKGRFTISRDNAKNTVYLQMNSLKPEVTAVYYCAADFLCTAYRPSWYRFDYWGQGTQVTVSS", "low polyreactivity"),
    ("QVQLVESVGGLVQAGGSLRLSCAASGNTFKYYAMGWYRQAPGKERELVAGITWTGGRTNYADSVKGRFTISRDNAKNTVYLQMNSLKPEDTAVYYCAADYWWYTGYDYWGQGTQVTVSS", "high polyreactivity"),
    ("QVQLVESGGGLVQAGGSLRLSCAASGLTFRRNAMGWYRQAPGKERELVAAISSGGVRTYYADSVKGRFTISRDNAKNTVYLQMNSLKPEDTAVYYCAAEDYAQRYTHYESWGQGTQVTVSS", "low polyreactivity"),
    ("QVQLVESGGGLVQAGGSLRLSCAASGSISDIYTMGWYRQAPGKERELVAAITGSAGSTYADSVKGRFTLSRDNAKNTVYLQMNSLKPEDTAVYYCNAQPGDDVKVKLDYWGQGTQVTVSS", "low polyreactivity"),
    ("QVQLVESGGGLVQAGGSLRLSCAASGSTFWTNDMGWYRQAPGKERELVAAISQSAGDTYYADSVKGRFTISRDNAKNTVYLQMNSLKPEDTAVYYCAADLVFYPFTWDGYYYWGQGTQVTVSS", "low polyreactivity"),
    ("QVQLVESGGGLVQAGGSLRLSSAASGSTIYYYAMGLYRQAPGKEREFVATITQSGGSTYYADSVKGRFTISRDNAKNTVYLQMNSLKPEDTAVYYCAADSWEVDEADIYNSWGQGSQVTVSS", "low polyreactivity"),
]

What does the record list as polyreactivity (PSR sort gate) for QVQLVESGGGLVQAGGSLRFSCAASGSIFGSYAMGWYRQAPGKERELVAAITRGGGTTYYADSVKGRFTISRDNAKNTVYLQMNSLKPEDTAVYYCAAKWYHPYGPVYYWGQGTQVTVSS ?
high polyreactivity

Another sequence to check: QVQLVESGGGLVQAGGSLRLSCAASGLTFYQNAMGWYRQAPGKERELVAAISSSGGRTYYADSVKGRFTISRDNAKNTVYLQMNSLKPEDTAVYYCAAYRRYRNWFNYWGQGTQVTVSS
high polyreactivity

Another sequence to check: QVQLVESGGGLVQAGGSLRLSCAASGSIFSAYAMGWSRQAPGKERELVASITTDGGITYYADSVKGRFTISRDNAKNTVYLQMNSLKPEDTAVYYCAVLQYYYPYYYWGQGTQVTVSS
low polyreactivity
